Origin of values: patent US20210332145A1

Biological target: T1, cyno BCMA with a His tag (ACROBiosystems, Catalog No.: BCA-052H7) (cyno)
T1 construct: Bought His-tagged recombinant protein
T1 sequence (chain, as listed by the source limits assumed): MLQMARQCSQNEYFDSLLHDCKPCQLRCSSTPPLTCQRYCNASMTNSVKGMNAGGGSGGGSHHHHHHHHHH
Experiment: ELISA, plate-coated cyno BCMA-His
ENDPOINT: EC50

BINDER	MEASUREMENT
SCT-Aa03(h/h) (antibody, V domains shown, Full IgG format, chimeric: human IgG1 heavy chain constant region, human kappa light chain constant region) VH: EVKLLQSGGGLVQPGGSLKLSCAASGIDFSRYWMSWVRRAPGKGLEWIGEINPDSSTINYAPSLKDKFIISRDNAKNTLYLQMSKVRSEDTALYYCASFYYDYDHAMDYWGQGTSVTVSS VL: DIVMTQSQKFMSTSVGDRFSVTCKASQNVGTNVAWYQQKPGQSPKALIYSASYRFSGVPDRFTGSGSGTDFTLTISNVQSEDLAEYFCQQYNSYPFTFGSGTKLEIK	1.6 µg/mL
SCT-Aa02(m/m) (antibody, V domains shown, Full IgG format: mouse IgG1 heavy chain constant region, mouse kappa light chain constant region) VH: EVKLLQSGGGLVQPGGSLKLSCAASGIDFSRYWMSWVRRAPGKGLEWIGEINPDSSTINSAPSLEDKFIISRDNAKNTLYLQMSKVRSEDTALYYCASLYYDYERDYAMDYWGQGASVTVSS VL: DIVMTQSQKFMSTSVGDRVSVTCKASQNVGTNVAWYQQKPGQSPKALIYSASYRFSGVPDRFTGSGSGTDFTLTISNVQSEDLAEYFCQQYHSYPFTFGGGTKLEIK	0.0891 µg/mL
